src = ChEMBL document CHEMBL1649384

Test system: MCF7
test_protocol: Cytotoxicity against human MCF7 cells after 72 hrs by MTT assay
Format: functional
experimental_parameters: MCF7, 72 h

# test_smiles, LC50
records = [
    ("CS/C(=N\\C(=O)c1sccc1Cl)NC(=O)c1sccc1Cl", "> 100 µM"),
    ("C[Se]/C(=N\\C(=O)c1ccc2c(c1)OCO2)NC(=O)c1ccc2c(c1)OCO2", "> 100 µM"),
    ("O=C(/N=C(/NC(=O)c1ccco1)[Se]Cc1ccccc1)c1ccco1", "> 100 µM"),
    ("O=C(/N=C(/NC(=O)c1cnc2ccccc2c1)[Se]Cc1ccccc1)c1cnc2ccccc2c1", "> 100 µM"),
    ("C[Se]/C(=N\\C(=O)c1ccno1)NC(=O)c1ccno1", "> 100 µM"),
    ("O=C(/N=C(/NC(=O)c1cccs1)[Se]Cc1ccccc1)c1cccs1", "> 100 µM"),
]

====

Tested on: HT-29
test_protocol: Cytotoxicity against human HT-29 cells after 72 hrs by MTT assay
Format: functional
experimental_parameters: HT-29, 72 h, read-out: LC50 (the source's name)

# test_smiles, CC50
measured = [
    ("C[Se]/C(=N\\C(=O)c1cc2ccccc2s1)NC(=O)c1cc2ccccc2s1", "> 100 µM"),
    ("O=C(/N=C(/NC(=O)c1csc([N+](=O)[O-])c1)[Se]Cc1ccccc1)c1csc([N+](=O)[O-])c1", "> 100 µM"),
    ("O=C(/N=C(/NC(=O)c1ccco1)[Se]Cc1ccccc1)c1ccco1", "89.1 µM"),
]

====

Listing of recorded CC50 by entry.
Tested on: K562
test_protocol: Cytotoxicity against human K562 cells after 72 hrs by MTT assay
Assay type: functional
experimental_parameters: K562, 72 h, read-out: LC50 (the source's name)

# compound, target_desc, value_comparator, CC50 (µM)
rows = [
    ("C[Se]/C(=N\\C(=O)c1sccc1Cl)NC(=O)c1sccc1Cl", "K562", "=", 90),
    ("O=C(/N=C(/NC(=O)c1cccs1)[Se]Cc1ccccc1)c1cccs1", "K562", "=", 87.4),
    ("C[Se]/C(=N\\C(=O)c1cc2ccccc2s1)NC(=O)c1cc2ccccc2s1", "K562", "=", 89.5),
    ("C[Se]/C(=N\\C(=O)c1ccno1)NC(=O)c1ccno1", "K562", ">", 100),
    ("O=C(/N=C(/NC(=O)c1cc2ccccc2s1)[Se]Cc1ccccc1)c1cc2ccccc2s1", "K562", "=", 70.6),
    ("CS/C(=N\\C(=O)c1csc([N+](=O)[O-])c1)NC(=O)c1csc([N+](=O)[O-])c1", "K562", ">", 100),
    ("C[Se]/C(=N\\C(=O)c1cccs1)NC(=O)c1cccs1", "K562", ">", 100),
    ("C[Se]/C(=N\\C(=O)c1c2ccccc2nc2ccccc12)NC(=O)c1c2ccccc2nc2ccccc12", "K562", "=", 94.8),
    ("CS/C(=N\\C(=O)c1cc2ccccc2s1)NC(=O)c1cc2ccccc2s1", "K562", "=", 98.6),
    ("CN(Cc1cnc2nc(N)nc(N)c2n1)c1ccc(C(=O)N[C@@H](CCC(=O)O)C(=O)O)cc1 [METHOTREXATE]", "K562", ">", 100),
    ("O=C(/N=C(/NC(=O)c1csc([N+](=O)[O-])c1)[Se]Cc1ccccc1)c1csc([N+](=O)[O-])c1", "K562", "=", 88.2),
    ("COc1cc([C@@H]2c3cc4c(cc3[C@@H](O[C@@H]3O[C@@H]5CO[C@@H](C)O[C@H]5[C@H](O)[C@H]3O)[C@H]3COC(=O)[C@H]23)OCO4)cc(OC)c1O [ETOPOSIDE]", "K562", ">", 100),
    ("CS/C(=N\\C(=O)c1ccc2c(c1)OCO2)NC(=O)c1ccc2c(c1)OCO2", "K562", ">", 100),
]
